Origin of values: ChEMBL document CHEMBL1146819

Protein target, amino acids: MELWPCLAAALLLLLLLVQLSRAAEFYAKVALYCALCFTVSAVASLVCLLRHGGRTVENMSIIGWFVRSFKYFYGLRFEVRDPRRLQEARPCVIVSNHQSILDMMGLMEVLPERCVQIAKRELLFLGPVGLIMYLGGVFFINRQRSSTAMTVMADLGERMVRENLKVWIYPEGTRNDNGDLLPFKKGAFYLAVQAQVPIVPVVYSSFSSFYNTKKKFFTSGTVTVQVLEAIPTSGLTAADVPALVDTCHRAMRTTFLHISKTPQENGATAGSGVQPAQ
Assay Metric: IC50 (nM)

Completed entries (count: 2):
[[record]]
structure_string = "C#CCOC(=O)Nc1ccc(Cl)c(-c2nc3cc(C(F)(F)F)ccc3[nH]2)c1"
experimental_result = 5200

[[record]]
structure_string = "C=CCOC(=O)Nc1ccc(Cl)c(-c2nc3cc(C)ccc3o2)c1"
experimental_result = 1400


1 = Cc1ccc2oc(-c3cc(NC(=O)c4ccccc4)ccc3Cl)nc2c1
2 = C#CCOC(=O)Nc1ccc(Cl)c(-c2nc3cc(C(F)(F)F)ccc3n2C)c1
3 = CCC(=O)Nc1ccc(Cl)c(-c2nc3cc(C)ccc3o2)c1
4 = Cc1ccc(NC(=O)CC#N)cc1-c1nc2ccccc2s1
5 = CCCC(=O)Nc1ccc(Cl)c(-c2nc3cc(C)ccc3o2)c1
Inquiry: Descending sort on IC50 required. Put the labels in the requested order and list them out.
Reply text: 1, 5, 3, 2, 4
(1: 40000 nM, 5: 2500 nM, 3: 1500 nM, 2: 120 nM, 4: 70 nM)

====

The following molecules each carry a recorded IC50 for 1-acyl-sn-glycerol-3-phosphate acyltransferase beta (Homo sapiens, UniProt O15120).
Assay Metric: IC50 (nM)

Completed entries (count: 5):
[[record]]
structure_string = "COC(=O)Nc1ccc(Cl)c(-c2nc3cc(C)ccc3n2C)c1"
readout_units = "nM"
experimental_result = 11000

[[record]]
structure_string = "COC(=O)Nc1ccc(Cl)c(-c2nc3c(C)cccc3s2)c1"
readout_units = "nM"
experimental_result = 9000

[[record]]
structure_string = "COC(=O)Nc1ccc(Cl)c(-c2nc3ccc(C)cc3o2)c1"
readout_units = "nM"
experimental_result = 400

[[record]]
structure_string = "COC(=O)Nc1ccc(Cl)c(-c2nc3c(C)cccc3o2)c1"
readout_units = "nM"
experimental_result = 500

[[record]]
structure_string = "Cn1c(-c2cc(NC(=O)CC#N)ccc2Cl)nc2cc(Cl)ccc21"
readout_units = "nM"
experimental_result = 300


A = CCOC(=O)Nc1ccc(Cl)c(-c2nc3cc(C)ccc3o2)c1
B = COC(=O)Nc1ccc(OC)c(-c2nc3cc(C)ccc3o2)c1
C = C#CCCC(=O)Nc1ccc(Cl)c(-c2nc3cc(Cl)ccc3o2)c1
D = COC(=O)Nc1ccc(Cl)c(-c2nc3cc(C)ccc3o2)c1
E = CCCOC(=O)Nc1ccc(Cl)c(-c2nc3cc(C)ccc3o2)c1
Inquiry: Descending sort on IC50 required. Put the labels in the requested order and list them out.
Reply text: B, E, A, D, C
(B: 64000 nM, E: 12000 nM, A: 1500 nM, D: 1000 nM, C: 100 nM)

====

Biological target: 1-acyl-sn-glycerol-3-phosphate acyltransferase alpha (Homo sapiens)
Sequence (whole entry): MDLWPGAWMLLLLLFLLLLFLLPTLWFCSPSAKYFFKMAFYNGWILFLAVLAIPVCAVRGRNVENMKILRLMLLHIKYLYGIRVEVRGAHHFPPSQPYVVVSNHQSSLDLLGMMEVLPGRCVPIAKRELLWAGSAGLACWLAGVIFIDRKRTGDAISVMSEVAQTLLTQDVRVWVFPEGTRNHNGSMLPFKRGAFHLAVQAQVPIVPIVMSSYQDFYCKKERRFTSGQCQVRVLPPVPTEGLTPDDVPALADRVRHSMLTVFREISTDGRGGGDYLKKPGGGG
Experiment: Inhibitory activity against human lysophosphatidic acid acyltransferase-alpha (LPAAT-alpha) expressed in Sf9 insect cell membranes at <20 uM; Not active
Calls of active or inactive are those of the source.
Assay Metric: Activity

[[record]]
structure_string = "Cn1c(-c2cc(NC(=O)CC#N)ccc2Cl)nc2cc(Cl)ccc21"
experimental_result = "inactive"

[[record]]
structure_string = "COC(=O)Nc1ccc(Cl)c(-c2nc3c(C)cccc3s2)c1"
experimental_result = "inactive"

[[record]]
structure_string = "C#CCOC(=O)Nc1ccc(C)c(-c2nc3cc(Cl)ccc3s2)c1"
experimental_result = "inactive"

[[record]]
structure_string = "C#CCOC(=O)Nc1ccc(Cl)c(-c2nc3cc(Cl)ccc3s2)c1"
experimental_result = "inactive"

[[record]]
structure_string = "C#CCNC(=O)Nc1ccc(Cl)c(-c2nc3cc(Cl)ccc3o2)c1"
experimental_result = "inactive"

[[record]]
structure_string = "Cc1ccc2oc(-c3cc(NC(=O)CC#N)ccc3Cl)nc2c1"
experimental_result = "inactive"

[[record]]
structure_string = "N#CCC(=O)Nc1ccc(Cl)c(-c2nc3cc(Cl)ccc3s2)c1"
experimental_result = "inactive"

[[record]]
structure_string = "COC(=O)Nc1ccc(Cl)c(-c2nc3cc(C)ccc3o2)c1"
experimental_result = "inactive"

[[record]]
structure_string = "COC(=O)Nc1ccc(Cl)c(-c2nc3c(C)cccc3o2)c1"
experimental_result = "inactive"

[[record]]
structure_string = "COC(=O)Nc1ccc(OC)c(-c2nc3cc(C)ccc3o2)c1"
experimental_result = "inactive"


Inquiry: Looking for the measured Activity of "COC(=O)Nc1ccc(Cl)c(-c2nc3cc(Cl)ccc3s2)c1" , can you help?
Reply text: inactive

Inquiry: Looking for the measured Activity of "COC(=O)Nc1ccc(F)c(-c2nc3cc(C)ccc3o2)c1" , can you help?
Reply text: inactive

Inquiry: Looking for the measured Activity of "Cc1ccc2oc(-c3cc(NC(=O)CO)ccc3Cl)nc2c1" , can you help?
Reply text: inactive

Inquiry: Looking for the measured Activity of "COC(=O)Nc1ccc(Cl)c(-c2nc3ccc(C)cc3n2C)c1" , can you help?
Reply text: inactive

Inquiry: Looking for the measured Activity of "COC(=O)Nc1cccc(-c2nc3cc(C)ccc3o2)c1" , can you help?
Reply text: inactive

Inquiry: Looking for the measured Activity of "C#CCOC(=O)Nc1ccc(Cl)c(-c2nc3cc(C)ccc3o2)c1" , can you help?
Reply text: inactive

Inquiry: Looking for the measured Activity of "CN(C)CC(=O)Nc1ccc(Cl)c(-c2nc3cc(Cl)ccc3o2)c1" , can you help?
Reply text: inactive

Inquiry: Looking for the measured Activity of "COC(=O)Nc1ccc(Cl)c(-c2nc3cc(O)ccc3o2)c1" , can you help?
Reply text: inactive

Inquiry: Looking for the measured Activity of "COC(=O)Nc1ccc(Cl)c(-c2nc3ccc(C)cc3o2)c1" , can you help?
Reply text: inactive

Inquiry: Looking for the measured Activity of "CCC(=O)Nc1ccc(Cl)c(-c2nc3cc(C)ccc3o2)c1" , can you help?
Reply text: inactive

Inquiry: Looking for the measured Activity of "CCCC(=O)Nc1ccc(Cl)c(-c2nc3cc(C)ccc3o2)c1" , can you help?
Reply text: inactive

Inquiry: Looking for the measured Activity of "C#CCOC(=O)Nc1ccc(Cl)c(-c2nc3cc(Cl)ccc3n2C)c1" , can you help?
Reply text: inactive

Inquiry: Looking for the measured Activity of "C#CCOC(=O)Nc1ccc(Cl)c(-c2nc3cc(O)ccc3o2)c1" , can you help?
Reply text: inactive
